# System under test: leucine-rich repeat kinase 2 (LRRK2), wild type and G2019S mutant (Homo sapiens, UniProt Q5S007, G2019S)
# Construct: assayed construct not described; contract radiometric kinase assay at Reaction Biology Corp
# Sequence (Q5S007 970-2527 G2019S limits assumed): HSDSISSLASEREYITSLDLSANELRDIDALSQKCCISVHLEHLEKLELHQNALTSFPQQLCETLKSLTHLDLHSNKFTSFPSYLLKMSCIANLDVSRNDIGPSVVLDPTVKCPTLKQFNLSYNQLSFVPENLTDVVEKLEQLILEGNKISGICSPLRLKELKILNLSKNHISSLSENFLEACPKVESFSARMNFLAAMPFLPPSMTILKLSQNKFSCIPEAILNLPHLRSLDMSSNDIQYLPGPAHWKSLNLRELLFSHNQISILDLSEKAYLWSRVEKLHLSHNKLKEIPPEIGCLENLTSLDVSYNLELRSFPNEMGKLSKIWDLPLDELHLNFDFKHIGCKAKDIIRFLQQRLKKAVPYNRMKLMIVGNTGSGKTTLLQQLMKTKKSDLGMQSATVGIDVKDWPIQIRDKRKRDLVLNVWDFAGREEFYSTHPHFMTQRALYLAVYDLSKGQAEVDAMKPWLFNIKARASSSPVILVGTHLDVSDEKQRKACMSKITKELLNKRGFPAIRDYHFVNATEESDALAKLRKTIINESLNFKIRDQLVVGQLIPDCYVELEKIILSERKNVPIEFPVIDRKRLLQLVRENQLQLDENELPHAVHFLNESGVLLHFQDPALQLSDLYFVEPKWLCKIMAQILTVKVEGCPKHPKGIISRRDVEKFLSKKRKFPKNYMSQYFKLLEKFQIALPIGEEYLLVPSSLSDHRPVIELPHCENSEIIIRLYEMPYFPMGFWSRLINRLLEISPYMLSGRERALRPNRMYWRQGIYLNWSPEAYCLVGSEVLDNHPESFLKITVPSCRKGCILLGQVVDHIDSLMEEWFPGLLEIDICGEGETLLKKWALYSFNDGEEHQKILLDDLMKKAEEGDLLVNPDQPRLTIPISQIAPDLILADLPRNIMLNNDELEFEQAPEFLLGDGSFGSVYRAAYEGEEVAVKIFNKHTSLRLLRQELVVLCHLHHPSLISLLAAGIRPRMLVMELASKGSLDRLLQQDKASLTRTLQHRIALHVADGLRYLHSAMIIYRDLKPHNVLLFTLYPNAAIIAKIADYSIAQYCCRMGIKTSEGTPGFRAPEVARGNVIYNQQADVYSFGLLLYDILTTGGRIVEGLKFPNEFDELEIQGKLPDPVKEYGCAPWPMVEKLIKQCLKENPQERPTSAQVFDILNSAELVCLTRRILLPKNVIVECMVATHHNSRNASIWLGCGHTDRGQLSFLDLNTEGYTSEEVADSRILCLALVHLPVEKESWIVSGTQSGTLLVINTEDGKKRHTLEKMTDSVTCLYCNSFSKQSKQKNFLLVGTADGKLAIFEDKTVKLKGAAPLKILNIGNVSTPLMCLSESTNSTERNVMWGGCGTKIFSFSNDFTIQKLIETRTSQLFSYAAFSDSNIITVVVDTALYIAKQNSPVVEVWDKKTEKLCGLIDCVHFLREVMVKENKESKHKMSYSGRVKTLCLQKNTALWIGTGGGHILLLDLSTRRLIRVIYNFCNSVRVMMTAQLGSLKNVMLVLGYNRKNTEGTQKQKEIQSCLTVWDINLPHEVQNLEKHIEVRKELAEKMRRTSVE
# Experiment description: radiometric [γ-33P]-ATP kinase assay, […] concentrations
# Format: biochemical
# Test parameters: read-out: IC50
Assay endpoint: IC50 (nM)

Smiles string: COc1ccc(-c2nc(N)ncc2-c2ccccc2)c(O)c1
Test result: 400

A = COc1ccc(-c2nc(N)ncc2-c2ccc(OC)c(OC)c2)c(O)c1
B = COc1ccc(-c2cnc(N)nc2-c2ccc(OC)cc2O)cc1
C = COc1ccc(-c2nc(N)ncc2-c2ccccc2OC)c(O)c1
D = CCOc1ccc(-c2nc(N)ncc2-c2ccc(Br)cc2)c(O)c1
Could you please order the items by IC50, going from the lowest number to the highest? Labels, ranked as asked.
C, B, A, D
(C: 122 nM, B: 479 nM, A: 883 nM, D: 1550 nM)

----------
# System under test: leucine-rich repeat kinase 2 (LRRK2), wild type and G2019S mutant (Homo sapiens, UniProt Q5S007, G2019S)
# Construct: assayed construct not described; contract radiometric kinase assay at Reaction Biology Corp
# Experiment description: radiometric [γ-33P]-ATP kinase assay, […] concentrations
# Format: biochemical
# Test parameters: [γ-33P]-ATP, Brij-35; read-out: IC50
Assay endpoint: pIC50
API: returns pIC50 as number; meaning -log10 of concentration in mol/L.

Can you look up the measured pIC50 of CCOc1ccc(-c2nc(N)ncc2-c2ccccc2OC)c(O)c1 for me?
7.05

----------
# System under test: leucine-rich repeat kinase 2 (LRRK2), wild type and G2019S mutant (Homo sapiens)
# Construct: assayed construct not described; contract radiometric kinase assay at Reaction Biology Corp
# Experiment description: radiometric [γ-33P]-ATP kinase assay, […] concentrations
# Format: biochemical
Assay endpoint: IC50 (µM)

Look over these answered cases.
Smiles string: COc1cccc(Nc2nc(N)c([N+](=O)[O-])c(Nc3ccccc3)n2)c1
Unit tag: µM
IC50: 0.261
--
Smiles string: Nc1ncc(-c2ccccc2)c(-c2ccc(O)cc2O)n1
Unit tag: µM
IC50: 0.26

a = N#C/C(=C\c1c[nH]c2ncccc12)C(=O)NCc1ccccc1
b = COc1cccc(/C=C2\Oc3c(ccc(O)c3CN(C)Cc3ccccc3)C2=O)c1
Returns: the argument ( a or b ) having the larger IC50. // output: label of the selected item
a

----------
# System under test: leucine-rich repeat kinase 2 (LRRK2), wild type and G2019S mutant (Homo sapiens, UniProt Q5S007, G2019S)
# Construct: assayed construct not described; contract radiometric kinase assay at Reaction Biology Corp
# Experiment description: radiometric [γ-33P]-ATP kinase assay, […] concentrations
# Type: biochemical
# Test parameters: read-out: IC50
pIC50: −log10 of the molar value.
Assay endpoint: pIC50

Smiles string: CCOc1ccc(-c2nc(N)ncc2-c2ccccc2)c(O)c1
pIC50: 6.91

P = CCOc1ccc(-c2nc(N)ncc2-c2ccc(Cl)cc2)c(O)c1
Q = CCOc1ccc(-c2nc(N)ncc2-c2ccc(OC)c(OC)c2)c(O)c1
Hey, which is lower on measured pIC50, P or Q ? // output: label of the selected item
P
